- Test system: Moraxella catarrhalis ATCC 25238
- Procedure details: MIC, spiral gradient endpoint assay (GC II agar, 5% CO2)
- Condition parameters: ATCC25238, read-out: MIC M. catarrhalis 25238
Experimental endpoint: MIC

Q: For the compound CC(C)CCC1=C(O)C(CCC(C)C)(CCC(C)C)C(=O)C(C(=O)CCc2ccccc2)=C1O [Compound 15] , what MIC is on record?
A: 25 µg/mL

Q: Reported MIC for COc1ccccc1CCC(=O)C1=C(O)C(CCC(C)C)=C(O)C(CCC(C)C)(CCC(C)C)C1=O [Compound 4] : what is it?
A: > 40 µg/mL

Q: Using the record for CCCCCC1=C(O)C(CCCCC)(CCCCC)C(=O)C(C(=O)CCc2ccccc2)=C1O [Compound 19] , report its MIC.
A: 19 µg/mL

Q: Recorded MIC of CCC1=C(O)C(CC)(CC)C(=O)C(C(=O)CCc2ccccc2)=C1O [Compound 16] , please.
A: > 40 µg/mL

Q: // MIC lookup, key: CC(C)CCC1=C(O)C(CCC(C)C)(CCC(C)C)C(=O)C(C(=O)C(C)Cc2ccccc2)=C1O (centres unmarked) [Compound 20]
A: 24 µg/mL

Q: For the compound CC(C)CCC1=C(O)C(CCC(C)C)(CCC(C)C)C(=O)C(C(=O)CCc2ccccc2Cl)=C1O [Compound 1] , what MIC is on record?
A: > 40 µg/mL

Q: Which MIC is reported for this compound? COc1cccc(CCC(=O)C2=C(O)C(CCC(C)C)=C(O)C(CCC(C)C)(CCC(C)C)C2=O)c1 [Compound 5]
A: 19 µg/mL

Q: Quick check: MIC of CCCCC1=C(O)C(CCCC)(CCCC)C(=O)C(C(=O)CCc2ccccc2)=C1O [Compound 18] ?
A: 24 µg/mL

---

- Assay target: E. coli RNA polymerase σ70 holoenzyme (Escherichia coli (strain K12), UniProt P0A8T7+P0A8V2)
- Procedure details: Fluorescence-detected RNA polymerase assay, E. coli RNAP
Decision: IC50 beneath 2000 nM gives yes (1); IC50 meeting or exceeding 2000 nM gives no (0).

Q: Strictly below 2000 nM in IC50? `CCC1=C(O)C(CC)(CC)C(=O)C(C(=O)CCc2ccccc2)=C1O`
A: no (0)

Q: API: query returns whether the compound falls strictly under 2000 nM in IC50. Query: `CCCCC1=C(O)C(CCCC)(CCCC)C(=O)C(C(=O)CCc2ccc(Cl)cc2)=C1O`
A: yes (1)

Q: Is 2000 nM strictly greater than the compound's reported IC50? compound: `Cc1cccc(CCC(=O)C2=C(O)C(CCC(C)C)=C(O)C(CCC(C)C)(CCC(C)C)C2=O)c1`
A: yes (1)

Q: Take the compound `CC(C)CCC1=C(O)C(CCC(C)C)(CCC(C)C)C(=O)C(C(=O)CCc2ccc(C(F)(F)F)cc2)=C1O` and say whether its IC50 is less than 2000 nM.
A: yes (1)

Q: State whether 2000 nM exceeds IC50 recorded for `CCCC1=C(O)C(CCC)(CCC)C(=O)C(C(=O)CCc2ccc(Cl)cc2)=C1O` .
A: no (0)

Q: Find out if reported IC50 for `CC(C)CCC1=C(O)C(CCC(C)C)(CCC(C)C)C(=O)C(C(=O)CCc2cccc(Cl)c2)=C1O` is less than 2000 nM
A: no (0)

Q: Find out if reported IC50 for CC(C)CCC1=C(O)C(CCC(C)C)(CCC(C)C)C(=O)C(C(=O)C(C)Cc2ccccc2)=C1O (centres unmarked) is less than 2000 nM
A: no (0)

Q: Strictly below 2000 nM: is that where IC50 of `CC(C)CCC1=C(O)C(CCC(C)C)(CCC(C)C)C(=O)C(C(=O)CCc2ccc(F)cc2)=C1O` sits?
A: yes (1)

---

Kindly state MIC for each of the entries shown.
The figure you give is taken to be in µg/mL; do not add the unit.

Q: Moraxella catarrhalis ATCC 25238 / MIC / `CC(C)CCC1=C(O)C(CCC(C)C)(CCC(C)C)C(=O)C(C(=O)CCc2ccc(Cl)cc2)=C1O` : value?
A: 19

Q: Tell me reported MIC for `COc1ccc(CCC(=O)C2=C(O)C(CCC(C)C)=C(O)C(CCC(C)C)(CCC(C)C)C2=O)cc1` , tested with Moraxella catarrhalis ATCC 25238.
A: 19

Q: Kindly state the measured MIC obtained for `CC(C)CCC1=C(O)C(CCC(C)C)(CCC(C)C)C(=O)C(C(=O)CCc2cccc(Cl)c2)=C1O` with Moraxella catarrhalis ATCC 25238.
A: 19

---

- Assay target: E. coli RNA polymerase σ70 holoenzyme (Escherichia coli (strain K12), UniProt P0A8T7+P0A8V2)
- Procedure details: Fluorescence-detected RNA polymerase assay, E. coli RNAP
Mark yes only for IC50 values smaller than 2000 nM; exact matches and larger values are no.

Q: # TODO verify IC50 < 2000 nM strictly for this compound: `Cc1ccc(CCC(=O)C2=C(O)C(CCC(C)C)=C(O)C(CCC(C)C)(CCC(C)C)C2=O)cc1`
A: yes

Q: Dear colleague, could you confirm whether IC50 of `COc1ccccc1CCC(=O)C1=C(O)C(CCC(C)C)=C(O)C(CCC(C)C)(CCC(C)C)C1=O` falls below 2000 nM? Thanks.
A: yes

Q: In plain terms, does `CC(C)CCC1=C(O)C(CCC(C)C)(CCC(C)C)C(=O)C(C(=O)CCc2ccc(Cl)cc2)=C1O` come in under 2000 nM for IC50?
A: yes

Q: Threshold test, IC50 < 2000 nM: `COc1cccc(CCC(=O)C2=C(O)C(CCC(C)C)=C(O)C(CCC(C)C)(CCC(C)C)C2=O)c1`
A: yes

Q: Would you kindly verify if IC50 of `COc1ccc(CCC(=O)C2=C(O)C(CCC(C)C)=C(O)C(CCC(C)C)(CCC(C)C)C2=O)cc1` is strictly less than 2000 nM?
A: yes

Q: hey, is IC50 for `Cc1ccccc1CCC(=O)C1=C(O)C(CCC(C)C)=C(O)C(CCC(C)C)(CCC(C)C)C1=O` lower than 2000 nM or not?
A: yes

Q: Determine if `CC(C)CCC1=C(O)C(CCC(C)C)(CCC(C)C)C(=O)C(C(=O)CCc2ccccc2)=C1O` shows IC50 strictly lower than 2000 nM.
A: no

Q: Lab note: IC50 threshold 2000 nM. Does this compound come in strictly under it? `CC(C)CCC1=C(O)C(CCC(C)C)(CCC(C)C)C(=O)C(C(=O)CCc2ccccc2Cl)=C1O`
A: no

---

Please respond with reported MIC for every item in the list.
Just the number in µg/mL, nothing appended.

Q: Please tell me: MIC of `CC(C)CCC1=C(O)C(CCC(C)C)(CCC(C)C)C(=O)C(C(=O)CCc2ccccc2)=C1O` , system Staphylococcus aureus BAA-1707 MRSA (MW2)?
A: 0.4

Q: Checklist item: MIC tested on Staphylococcus aureus BAA-1707 MRSA (MW2), entry CC(C)CCC1=C(O)C(CCC(C)C)(CCC(C)C)C(=O)C(C(=O)C(C)Cc2ccccc2)=C1O (stereo not drawn) , value?
A: 0.7

Q: Requested read-out MIC, target or system Staphylococcus aureus BAA-1707 MRSA (MW2), entry `CCCCCC1=C(O)C(CCCCC)(CCCCC)C(=O)C(C(=O)CCc2ccccc2)=C1O`
A: 0.7

Q: Report MIC for `CCCCC1=C(O)C(CCCC)(CCCC)C(=O)C(C(=O)CCc2ccccc2)=C1O` tested on Staphylococcus aureus BAA-1707 MRSA (MW2).
A: 0.8

Q: So what MIC did `CCC1=C(O)C(CC)(CC)C(=O)C(C(=O)CCc2ccccc2)=C1O` get with Staphylococcus aureus BAA-1707 MRSA (MW2)?
A: 6

Q: Give MIC (Staphylococcus aureus BAA-1707 MRSA (MW2)) of the following compound: `CCCC1=C(O)C(CCC)(CCC)C(=O)C(C(=O)CCc2ccccc2)=C1O`
A: 2

---

Assignment: determine reported log10 IC50 for the given molecules.
- Assay target: M. tuberculosis RNA polymerase core enzyme + σA (Mycobacterium tuberculosis (strain ATCC 25618 / H37Rv), UniProt P9WGY7+P9WGY9)
- Procedure details: Fluorescence-detected RNA polymerase assay, M. tuberculosis RNAP
- Assay type: biochemical
Reminder: these figures are log10 of reported IC50, in nM before transformation.

Q: Looking for the measured log10 IC50 of `Cc1ccc(CCC(=O)C2=C(O)C(CCC(C)C)=C(O)C(CCC(C)C)(CCC(C)C)C2=O)cc1` , can you help?
A: 2.46

Q: Reported log10 IC50 for `CC(C)CCC1=C(O)C(CCC(C)C)(CCC(C)C)C(=O)C(C(=O)CCc2cccc(Cl)c2)=C1O` : what is it?
A: 3.34

Q: So what's the measured log10 IC50 for this one? `CC(C)CCC1=C(O)C(CCC(C)C)(CCC(C)C)C(=O)C(C(=O)CCc2ccccc2)=C1O`
A: 3.41

Q: Requested read-out: log10 IC50. Entry: `CC(C)CCC1=C(O)C(CCC(C)C)(CCC(C)C)C(=O)C(C(=O)CCc2ccc(Cl)cc2)=C1O`
A: 2.89

Q: Give the measured log10 IC50 of `COc1cccc(CCC(=O)C2=C(O)C(CCC(C)C)=C(O)C(CCC(C)C)(CCC(C)C)C2=O)c1` .
A: 3.04

Q: If you can, please state the reported log10 IC50 value of `CCCC1=C(O)C(CCC)(CCC)C(=O)C(C(=O)CCc2ccccc2)=C1O` .
A: 5.15

Q: Item under review: `CC(C)CCC1=C(O)C(CCC(C)C)(CCC(C)C)C(=O)C(C(=O)CCc2ccccc2Cl)=C1O` . Reported log10 IC50?
A: 3.08

Q: Look at this molecule and give its reported log10 IC50. `CCCC1=C(O)C(CCC)(CCC)C(=O)C(C(=O)CCc2ccc(Cl)cc2)=C1O`
A: 3.15
